Provenance of the data: ChEMBL document CHEMBL1134791

Test system: Trypanosoma cruzi
Assay: Ratio of cytochrome c reduction and NADH oxidation by TcLipDH (Trypanosoma cruzi lipoamide dehydrogenase) at 50 uM concentration, in cytochrome c assay
Quick rule: Reduction of at least 10% means 1.0, below that means 0.0.

>  <molecule_smiles>
CC1=C(CCC(=O)O)C(=O)c2ccccc2C1=O

>  <assayed_system>
Trypanosoma cruzi

>  <group>
0.0

$$$$
>  <molecule_smiles>
CC1=C(CCC(=O)NCCCN2CCN(C)CC2)C(=O)c2ccccc2C1=O

>  <assayed_system>
Trypanosoma cruzi

>  <group>
0.0

$$$$
>  <molecule_smiles>
CC1=C(CCC(=O)NCCCN2CCN(C)CC2)C(=O)c2c(O)cccc2C1=O

>  <assayed_system>
Trypanosoma cruzi

>  <group>
0.0

$$$$
>  <molecule_smiles>
CC1=CC(=O)c2ccccc2C1=O

>  <assayed_system>
Trypanosoma cruzi

>  <group>
1.0

$$$$
>  <molecule_smiles>
CC1=C(CCC(=O)O)C(=O)c2c(O)cccc2C1=O

>  <assayed_system>
Trypanosoma cruzi

>  <group>
0.0

$$$$
>  <molecule_smiles>
CC1=CC(=O)c2c(O)cccc2C1=O

>  <assayed_system>
Trypanosoma cruzi

>  <group>
1.0

$$$$
